- System: Mus musculus
- experiment: Parenteral antimalarial effect against Plasmodium berghei in mice (Mus musculus) at a dose of 80 mg/kg subcutaneously
- Type: functional
- condition.context: route subcutaneous
quantity.name: MST (days)
Dear colleague, please return just the value in days, with no unit written.

Look up MST with Mus musculus for this compound: CC1(C)N=C(N)N=C(N)N1c1ccc(Cl)cc1.Cl [CHLORCYCLOGUANIL HYDROCHLORIDE]
2

Look up MST with Mus musculus for this compound: Nc1nc(N)c2nc(N3CCCCC3)cnc2n1
0.3

Look up MST with Mus musculus for this compound: CN(Cc1cccc(Br)c1)c1cnc2nc(N)nc(N)c2n1
10.7

Look up MST with Mus musculus for this compound: COc1ccc2ccccc2c1CN(C)c1cnc2nc(N)nc(N)c2n1
0.2

Look up MST with Mus musculus for this compound: CN(CCc1ccccc1)c1cnc2nc(N)nc(N)c2n1
0.1

Look up MST with Mus musculus for this compound: CN(Cc1ccc2c(c1)Cc1ccccc1-2)c1cnc2nc(N)nc(N)c2n1
2

Look up MST with Mus musculus for this compound: CN(Cc1c2ccccc2cc2ccccc12)c1cnc2nc(N)nc(N)c2n1
0.1

Look up MST with Mus musculus for this compound: COc1ccc(CN(C)c2cnc3nc(N)nc(N)c3n2)c2ccccc12
5

* * *

Please go through the items and note down their MIC.
- System: Staphylococcus aureus
- experiment: In vitro antibacterial effect against Staphylococcus aureus S18713 by using gradient plate test
- Format: functional

Find the recorded MIC belonging to Nc1nc(N)c2nc(N3CCC(c4ccccc4)CC3)cnc2n1 and report it.
> 0.25 mg/L

Find the recorded MIC belonging to CN(Cc1ccc(F)cc1)c1cnc2nc(N)nc(N)c2n1 and report it.
< 0.25 mg/L

Find the recorded MIC belonging to CN(CCc1ccccc1)c1cnc2nc(N)nc(N)c2n1 and report it.
< 0.25 mg/L

Find the recorded MIC belonging to CN(Cc1cccc(C(F)(F)F)c1)c1cnc2nc(N)nc(N)c2n1 and report it.
< 0.25 mg/L

Find the recorded MIC belonging to CN(Cc1ccc(Cl)c(Cl)c1)c1cnc2nc(N)nc(N)c2n1 and report it.
< 0.25 mg/L

Find the recorded MIC belonging to CN(Cc1cccc2ccccc12)c1cnc2nc(N)nc(N)c2n1 and report it.
< 0.25 mg/L
